- ASSAY NAME: Tested in vitro for cytotoxicity against […](LcV) in cells
- Type: functional
OBSERVATION TYPE: Cytotoxicity

Worked set:
COMPOUND: COc1cc([C@@H]2c3cc4c(cc3[C@H](O)[C@H]3COC(=O)[C@H]23)OCO4)cc(OC)c1OC
Cytotoxicity: 280 µg/mL

COMPOUND: COc1cc([C@@H]2c3cc(O)c(O)cc3[C@H](O)[C@H]3COC(=O)[C@H]23)cc(OC)c1OC
Cytotoxicity: >27.5 µg/mL

COMPOUND: COc1cc([C@@H]2c3cc4c(cc3[C@@H](O)[C@H]3COC(=O)[C@H]23)OCO4)cc(OC)c1OC [EPIPODOPHYLLOTOXIN]
Cytotoxicity: >65 µg/mL

COMPOUND: COc1cc([C@H]2C3=C(COC3=O)Cc3cc4c(cc32)OCO4)cc(OC)c1OC
Cytotoxicity: >28.5 µg/mL

COMPOUND: COc1cc([C@@H]2c3cc(O)c(O)cc3[C@@H](O)[C@H]3COC(=O)[C@H]23)cc(OC)c1OC
Cytotoxicity: >35 µg/mL

The compound listed as COc1cc([C@@H]2c3cc(OC(C)=O)c(OC(C)=O)cc3[C@@H](OC(C)=O)[C@H]3COC(=O)[C@H]23)cc(OC)c1OC has a reported Cytotoxicity of >28.5 µg/mL

The compound listed as COc1cc([C@@H]2c3cc4c(cc3C3=NOC[C@H]3[C@@H]2C(=O)O)OCO4)cc(OC)c1OC has a reported Cytotoxicity of >30 µg/mL

The compound listed as COc1cc([C@@H]2c3cc(O)c(O)cc3C[C@H]3COC(=O)[C@@H]32)cc(OC)c1OC has a reported Cytotoxicity of >25 µg/mL

The compound listed as COc1cc([C@H]2C3=C(COC3=O)Cc3cc(OC(C)=O)c(OC(C)=O)cc32)cc(OC)c1OC has a reported Cytotoxicity of >28.5 µg/mL

The compound listed as COc1cc([C@@H]2c3cc(OC(C)=O)c(OC(C)=O)cc3[C@H](OC(C)=O)[C@H]3COC(=O)[C@H]23)cc(OC)c1OC has a reported Cytotoxicity of >26 µg/mL
